Every entry's value here was drawn from the supplement of paper PMC9170038.

# System: K4 kissing-loop RNA reporter;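 note: bound reporter read as fluorescence of individual clusters on recovered sequencing chips by microscopy, with normalized cluster intensities fitted with a binding model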
# assay: apparent KD of K4 kissing-loop reporter; higher = weaker reporter binding
# setup-conditions: Eterna round: R107; input ligand: tryptophan 2.4 mM
Would you mind labelling by apparent KD of K4 kissing-loop reporter? At or over 200 nM is class 1, under is class 0.

Observe how each entry below is paired with its result.
• AAAUAUUGUUACCUGUUAACAUAGGGCCAACGAGGACCGGUACGGCCGCCACUCGUCUCAUAGCGAGUGAUGUUCGCACCGCCCA = class 0
• GGAUAGGAUAGAGGAUAUGGAAAACACAGAAAUGACUUGUUGUGUUUAUCCAUAGGGAGUGAUGUUCCAGAAGGCUGUCCUAUCG [MatMod 21 - Jieux - Exclusion - FMN B] = class 0
• ACGAUCAUGGCAGGAUAUACGAAUGCAUUAGGGCUGCCAGUGAUGUUGGUGGACCGAGGACGUAGAGUAGAAGGGCCGACUUAAA [Leonmain] = class 0

**Query** Identify whether the reported apparent KD of K4 kissing-loop reporter of the following sequence is 200 nM or greater: `UCCUACGAGGUAACGUGGAUAUCUCGUUGCAAGGAUAUCUGGAAACAGAGAAGGUGCAACAUUAUCAGCAGUGAUGUUGCUGACC`
**Result** class 1

**Query** // inclusive: apparent KD of K4 kissing-loop reporter at least 200 nM? input: `AAGCAGUCACGCGAAGCCAUCGAAGAUGGACGAGGACCGGUACGGCCGCCACUCGGAGUGAUGUUCCGAAGACUGCAAAAUAAAA`
**Result** class 1

**Query** Could you please find out whether AAGGGCGGAACUUCCUCGCCGGAUAGAGAUACCAGCCCAGCAAAGGGCCCUUGGCAGCUCACUGACCUCAGUGAUGUUGAGGUUC [Riesrevere] has apparent KD of K4 kissing-loop reporter that meets 200 nM or exceeds it?
**Result** class 1

**Query** Hi, just wondering whether UUUGGUUGUGGUGUUGAUUAGGGAGCGGAAGGAGCGCCGAGGAGGGCAGGUAGGUCGCCGGAAUGUAGUGAUGUUGCAUAGAGGU [ExArgA.Ad] shows apparent KD of K4 kissing-loop reporter of 200 nM or higher.
**Result** class 1

**Query** Would you say CGGAUGUAGUGAUGUUAUAUAAGAAGUAGACGAGGACCGGUACGGCCGCCACUCGAAACGGCUACUAGCGCGUUGCGAGGUGUGC [ExTryptoA.Ch] shows apparent KD of K4 kissing-loop reporter at minimum 200 nM?
**Result** class 1

* * *

# System: MS2 coat protein
# assay: apparent KD of MS2 coat protein; designed switch direction (-1 OFF switch, 1 ON switch): 1; higher = weaker reporter binding
# setup-conditions: Eterna round: R95; input ligand: FMN 200 uM
This section presents sequences with their documented apparent KD of MS2 coat protein values.
Answer with a number only, understood to be in nM.

• AAGUUACUAUCUCAGGAUAUCAUGUCAAAGACAUGAGGAUCACCCAUGUACCAGGAAACUGGUUAUGAGAAGGGAGAUAGUAACU [Mat - Same State 2 - Mod - D54] (puzzle: Same State 2) = 156

Now for the sequence whose apparent KD of MS2 coat protein we want.
**Query** Please provide the recorded apparent KD of MS2 coat protein for UGUUAACAUGAGGAUCACCCAUGUCAAAUGAAUCGAGGAUAUGGGAAGUAAUAAGAGAAACUAGAAGGCGAAGUUG [Altered State 1-2 - Jieux - Same State 1] (puzzle: Same State 1) , tested on MS2 coat protein.
**Result** 276

* * *

# Test system: MS2 coat protein
# assay: apparent KD of MS2 coat protein; designed switch direction (-1 OFF switch, 1 ON switch): 1; higher = weaker reporter binding
# setup-conditions: input ligand: microRNA oligo, concentration not stated
Categories are defined by ranges of apparent KD of MS2 coat protein, namely lo: < 50 nM; med: ≥ 50 nM and < 200 nM; hi: ≥ 200 nM

**Query** Exam item: assign AGUCCUGCCUGAGCAGGACAAAAGCAUGUACAUGAGGAUCACCCAUGUCAUGUACAAGCUUUUUGCUCGUCUUAAUA [Mat - hsa-mir-208a - Mod of JL - D41] (Eterna round: R96, puzzle: Sensor for hsa-mir-208a) to the correct category.
**Result** lo

**Query** Place this sequence in its band: GCUAGGAUAUGACGAGGAUCACCCGUUAGAAGGAGCUUCGGCUAGGAUAUGACGAGGAUCACCCGUUAGAAGGAGCUGUACUCU [pwkr ssNG3 DX 2xF5 +2xFMN.9] (Eterna round: R96, puzzle: Same State NG 3)
**Result** med

**Query** Exercise: read the entry UAAAGAAAGCGAGGAUAUAGCCCAUGUGAAGAACUAGAAGGCGCAGACAUGAGGAUCACCCAUGUGUUCAUGAGGAGGAGGACA [Kawasakiqro] (Eterna round: R96, puzzle: Same State NG 1) and state which class it falls under.
**Result** med

**Query** Could you place CUGAGCGAUCGAGGAUAUCACGUCGUUUAGACGUGAGAAGGCGAUCAUAACAUGAGGAUCACCCAUGUAUUACAUGAAGCUCAG [SSNG1/4-A3] (Eterna round: R96, puzzle: Same State NG 1) in its proper category? Many thanks.
**Result** lo

**Query** # bin lookup: classify AUUUUAAAUGCAGGAUAUGAUUAACAUGAGGAUCACCCAUGUGGUGUUGUGAGUAAGGAGAGUGAUCAGAAGGGCAUUUUUUUU [JMF's solution 95] (Eterna round: R96, puzzle: Same State NG 2) by its apparent KD of MS2 coat protein
**Result** hi

* * *

# System: MS2 coat protein
# assay: apparent KD of MS2 coat protein; higher = weaker reporter binding
# setup-conditions: Eterna round: R107; input ligand: theophylline 2 mM
Listing of recorded apparent KD of MS2 coat protein by entry.
Remember to quote the unit after the number.

Look over these answered cases.
* AACAUCACAACGGCCGCCACUGCACAUGACAACAUGAGGAUCACCCAUGUGGAUCACCCAUGUCCCAGGACCGGGUUAUGAGGAU [Same State - Tryptophan B #1] | 33.6 nM
* UUGGUUAUGCGAAGGAGCGGGAAAUAUAUAUAUAUAAUCCUAACAUGAGGAUCACCCAUGUCCCAGGUAGGUCGCGCAUAGUUGG [12.I] | 83.3 nM
* UAUCCACAUGAGGAUCACCCAUGUUAGGAAGGAGCGGUGAAUGAACCAGGUAGGUCGCCUAGCUGAGGACCAUCAAUGGAUUCGU [Exclusion - Arginine A (Freestyle 14)] | 36.8 nM
* GGGUCAGGCGCGGCCGCCACUGCGGUGAUGUGACAUGAGGAUCACCCAUGUUGUCAUGUGGCACAUAGGACCGGGCGCCUGGCCC [#1 Exclusion - Tryptophan B Attempt #7 (HarryS)] | 33.2 nM
* GUACAUGAGGAUCACCCAUGUAUAGUUGAAGGAGCGACCGGUGGGUCAGGUAGGUCGCAGCGCAUGGCGUCAACCCGUGUAUGCC [#1 Exclusion - Arginine A Attempt #27 (Inspired by Pi)] | 21 nM
* CCGCACAUGAGGAUCACCCAUGUCCGGGUUCGAGGACCGGUACGGCCGCCACUCGGACAUGUGCGCCCUUCAUGCACUGUAUAAA [Macetius] | 239 nM
* GUAAUUUUAAGAAGGAGCGUCGAAAAUGGGUAAACAUGAGGAUCACCCAUGUAAAGGGAACGACAGGUAGGUCGCUUAGGAUUAC [AstromonsSSArgB#23] | 220 nM
* UAUCGUCAGACGGCCGCCACUAGAACAUGAGGAUCACCCAUGUAGGCGGCCGAUUCCUCAUGAACUAGGACCGGGUCUGACGAAU [(Trp1)-(Ms2)-(T)'-(M)'-(Trp2)_Design12] | 8.89 nM
* CGAUAUAAGACGGCCGCCACUAUUAUGUAACAAAAUAAACAUGAGGAUCACCCAUGUACAUGGGAUAGGACCGGGUCCAAUAACG [#21 Same State - Tryptophan B] | 151 nM
* UUCGUUUACGGAAGGAGCGACGGACAUCGGUGAUCUAUGCACAUGAGGAUCACCCAUGUACGUCAGGUAGGUCGCCGUUAAGAGU [XArg-B28] | 184 nM

Let us examine a further case.
**Query** Given AAACAUGAGGCGGCCGCCACUGUAUGAACAUGAGGAUCACCCAUGUAUGUACCCAUGUGUGUACACAGGACCGGGCCAUGUGGAU [Exclusion Tryptophan B 4] , state its recorded apparent KD of MS2 coat protein.
**Result** 27.8 nM

* * *

Known apparent KD of MS2 coat protein of a selection of sequences
# Tested on: MS2 coat protein
# assay: apparent KD of MS2 coat protein; designed switch direction (-1 OFF switch, 1 ON switch): -1; higher = weaker reporter binding
# setup-conditions: input ligand: none
Provide the reading as a plain figure in nM.

# example entries with known answers
- GCACGGAGUGUAGGAUAUCUGUGCGAUUAGCUCAGAGAAGGACACAUGAGGAUCACCCAUGUGUAACUCAAUACUAAUCCGUGC [Eli exng1 - 077] (Eterna round: R96, puzzle: Exclusion NG 1): 10.7
- AAAAGGCAGGGAGGAUAUGCUUGCCUGGGUCGUCUUCAAACAUGAGGAUCACCCAUGUAGUCGACGCAGAAGGCCCUCAAAGCC [Mat - Exclusion NG 2 - Mod of JL - D61] (Eterna round: R96, puzzle: Exclusion NG 2): 16.5
- UAACUUUUAGUAAGGAUAUCGGUCCCAAGGGACAACGAGAAGGUACAUGAGGAUCACCCAUGUGAAAUAAGAAU [Mod of Zala 3 - Jieux - Brourd's Mod of Exclusion 4] (Eterna round: R97, puzzle: Brourd's mod of Exclusion 4): 21.1

**Query** Which apparent KD of MS2 coat protein value belongs to UAUGGUUAAGUCAGGAUAUGCACGCAGAGAACAAAGCAGAAGGGACAUGAGGAUCACCCAUGUAAAGUCGUGUU [Ex4 #77] (Eterna round: R97, puzzle: Brourd's mod of Exclusion 4) ?
**Result** 23
